- TARGET UNDER TEST: IDO1 (Homo sapiens)
- Construct: HeLa cells were treated with a test compound in the presence of IFNγ, which induces IDO1 expression; host or cells: H1-HeLa cells, IDO1 induced with IFNγ
- RUN DESCRIPTION: Cell-based (HeLa) assay for measurement of IDO1 inhibition (kynurenine levels in supernatant after IFNγ induction)
- TEST CONTEXT: HeLa cells, IFNγ-induced IDO1, kynurenine in supernatant after 48 hour incubation; geometric mean of a minimum of four determinations
pEC50: −log10 of the molar value.
Respond with Criterion met for pEC50 values of 6 and above, Criterion not met for values below.

Lookup: Kindly determine if pEC50 recorded for CS(=O)(=O)NCc1nc2nccc(/C(=N/O)Nc3ccc(F)c(Cl)c3)c2[nH]1 [Example 181] is above or exactly 6.
Found: Criterion not met

Lookup: Kindly determine if pEC50 recorded for O/N=C(\Nc1cccc(Cl)c1)c1ccnc2nc[nH]c12 [Example 82] is above or exactly 6.
Found: Criterion met

Lookup: Kindly determine if pEC50 recorded for O/N=C(\Nc1cc(F)cc(Br)c1)c1ccnc2nc[nH]c12 [Example 72] is above or exactly 6.
Found: Criterion met

Lookup: Kindly determine if pEC50 recorded for O/N=C(\Nc1ccc(F)c(Cl)c1)c1ccnc2nc(CNCc3ccccc3)[nH]c12 [Example 115] is above or exactly 6.
Found: Criterion not met

Lookup: Kindly determine if pEC50 recorded for O/N=C(\Nc1ccc(F)c(Cl)c1)c1ccnc2nc(CNc3ncccn3)[nH]c12 [Example 182] is above or exactly 6.
Found: Criterion not met

Lookup: Kindly determine if pEC50 recorded for O/N=C(\Nc1ccc(F)c(Cl)c1)c1ccnc2nc(NCCN3CCCC3)[nH]c12 [Example 283] is above or exactly 6.
Found: Criterion not met

---

What pEC50 was measured for each of the following?
- TARGET UNDER TEST: IDO1 (Homo sapiens, UniProt P14902)
- Construct: HeLa cells were treated with a test compound in the presence of IFNγ, which induces IDO1 expression; host or cells: H1-HeLa cells, IDO1 induced with IFNγ
- Sequence (P14902 whole entry): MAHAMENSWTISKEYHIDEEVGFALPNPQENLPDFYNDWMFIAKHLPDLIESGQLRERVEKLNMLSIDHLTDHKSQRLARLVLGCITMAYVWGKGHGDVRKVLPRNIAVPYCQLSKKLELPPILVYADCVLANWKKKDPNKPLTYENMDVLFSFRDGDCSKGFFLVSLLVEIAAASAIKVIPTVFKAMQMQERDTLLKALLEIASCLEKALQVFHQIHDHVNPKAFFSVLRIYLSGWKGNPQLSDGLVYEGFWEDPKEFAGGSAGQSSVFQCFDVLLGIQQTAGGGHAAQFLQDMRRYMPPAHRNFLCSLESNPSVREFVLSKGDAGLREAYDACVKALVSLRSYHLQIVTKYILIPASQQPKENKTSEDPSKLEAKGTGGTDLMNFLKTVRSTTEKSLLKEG
- RUN DESCRIPTION: Cell-based (HeLa) assay for measurement of IDO1 inhibition (kynurenine levels in supernatant after IFNγ induction)
- TEST CONTEXT: HeLa cells, IFNγ-induced IDO1, kynurenine in supernatant after 48 hour incubation; geometric mean of a minimum of four determinations
Bear in mind: pEC50 is minus log10 of a mol/L concentration; give just that figure.

Lookup: Recall the recorded pEC50 for O/N=C(\Nc1ccc(F)c(Cl)c1)c1ccnc2nc(-c3cccnc3)[nH]c12 with IDO1 (Homo sapiens, UniProt P14902) and state it.
Found: 5.71

Lookup: Recall the recorded pEC50 for C#Cc1cc(N/C(=N\O)c2ccnc3nc[nH]c23)ccc1F with IDO1 (Homo sapiens, UniProt P14902) and state it.
Found: 6.42

Lookup: Recall the recorded pEC50 for O/N=C(\Nc1ccc(F)c(Cl)c1)c1ccnc2nc(CNCCc3ccccn3)[nH]c12 with IDO1 (Homo sapiens, UniProt P14902) and state it.
Found: 5.68

Lookup: Recall the recorded pEC50 for O/N=C(\Nc1ccc(F)c(Cl)c1)c1ccnc2nc(NC3CC3)[nH]c12 with IDO1 (Homo sapiens, UniProt P14902) and state it.
Found: 6.28

Lookup: Recall the recorded pEC50 for CNCc1nc2nccc(/C(=N/O)Nc3ccc(F)c(Cl)c3)c2[nH]1 with IDO1 (Homo sapiens, UniProt P14902) and state it.
Found: 5.83

Lookup: Recall the recorded pEC50 for O/N=C(\Nc1ccc(F)c(Cl)c1)c1ccnc2nc(CNCC3CCCOC3)[nH]c12 (centres unmarked) with IDO1 (Homo sapiens, UniProt P14902) and state it.
Found: 5.59

Lookup: Recall the recorded pEC50 for O/N=C(\Nc1ccc(F)c(OC(F)(F)F)c1)c1ccnc2nc[nH]c12 with IDO1 (Homo sapiens, UniProt P14902) and state it.
Found: 6.07

Lookup: Recall the recorded pEC50 for O/N=C(\Nc1ccc(F)c(Cl)c1)c1ccnc2nc(CNCC3CCCCO3)[nH]c12 (centres unmarked) with IDO1 (Homo sapiens, UniProt P14902) and state it.
Found: 5.63

Lookup: Recall the recorded pEC50 for O/N=C(\Nc1ccc(F)c(Cl)c1)c1ccnc2nc(CNCc3cnccn3)[nH]c12 with IDO1 (Homo sapiens, UniProt P14902) and state it.
Found: 5.40

Lookup: Recall the recorded pEC50 for O/N=C(\Nc1ccc(F)c(Cl)c1)c1ccnc2nc(NCCN3CCCC(F)C3)[nH]c12 (centres unmarked) with IDO1 (Homo sapiens, UniProt P14902) and state it.
Found: 6.35

Lookup: Recall the recorded pEC50 for O/N=C(\Nc1ccc2c(c1)OC(F)(F)O2)c1ccnc2nc[nH]c12 with IDO1 (Homo sapiens, UniProt P14902) and state it.
Found: 6.03

Lookup: Recall the recorded pEC50 for OCCNc1nc2c(F)c(F)cc(/C(=N/O)Nc3ccc(F)c(Cl)c3)c2[nH]1 with IDO1 (Homo sapiens, UniProt P14902) and state it.
Found: 5.49

Lookup: Recall the recorded pEC50 for CCNCc1nc2c(F)c(F)cc(/C(=N/O)Nc3cccc(Cl)c3)c2[nH]1 with IDO1 (Homo sapiens, UniProt P14902) and state it.
Found: 6.10

Lookup: Recall the recorded pEC50 for CNCc1nc2c(F)c(F)cc(/C(=N/O)Nc3cccc(Cl)c3)c2[nH]1 with IDO1 (Homo sapiens, UniProt P14902) and state it.
Found: 5.96

Lookup: Recall the recorded pEC50 for O/N=C(\Nc1ccc(Cl)cc1)c1ccnc2nc[nH]c12 with IDO1 (Homo sapiens, UniProt P14902) and state it.
Found: 6.07

Lookup: Recall the recorded pEC50 for OCc1nc2nccc(/C(=N/O)Nc3ccc(F)c(Cl)c3)c2[nH]1 with IDO1 (Homo sapiens, UniProt P14902) and state it.
Found: 5.78

Lookup: Recall the recorded pEC50 for CC(C)CNCCc1nc2nccc(/C(=N/O)Nc3ccc(F)c(Cl)c3)c2[nH]1 with IDO1 (Homo sapiens, UniProt P14902) and state it.
Found: 5.64

Lookup: Recall the recorded pEC50 for O/N=C(\Nc1ccc(F)c(Cl)c1)c1cc(F)c(F)c2nc[nH]c12 with IDO1 (Homo sapiens, UniProt P14902) and state it.
Found: 6.36

Lookup: Recall the recorded pEC50 for CC(C)NCc1nc2c(F)c(F)cc(/C(=N/O)Nc3cccc(Cl)c3)c2[nH]1 with IDO1 (Homo sapiens, UniProt P14902) and state it.
Found: 6.08

Lookup: Recall the recorded pEC50 for CC(C)(O)c1nc2nccc(/C(=N/O)Nc3ccc(F)c(Cl)c3)c2[nH]1 with IDO1 (Homo sapiens, UniProt P14902) and state it.
Found: 5.19

Lookup: Recall the recorded pEC50 for O/N=C(\Nc1ccc(F)c(Cl)c1)c1ccnc2nc(CN3CCOCC3)[nH]c12 with IDO1 (Homo sapiens, UniProt P14902) and state it.
Found: 5.02

Lookup: Recall the recorded pEC50 for Cc1nc2nccc(/C(=N/O)Nc3ccc(F)c(Cl)c3)c2[nH]1 with IDO1 (Homo sapiens, UniProt P14902) and state it.
Found: 5.72

Lookup: Recall the recorded pEC50 for OCCc1nc2nccc(/C(=N/O)Nc3ccc(F)c(Cl)c3)c2[nH]1 with IDO1 (Homo sapiens, UniProt P14902) and state it.
Found: 5.62

Lookup: Recall the recorded pEC50 for O/N=C(\Nc1ccc(F)c(Br)c1)c1ccnc2nc[nH]c12 with IDO1 (Homo sapiens, UniProt P14902) and state it.
Found: 6.85

Lookup: Recall the recorded pEC50 for O/N=C(\Nc1ccc(F)c(Cl)c1)c1ccnc2nc(NCCC3CCCCC3)[nH]c12 with IDO1 (Homo sapiens, UniProt P14902) and state it.
Found: 5.66

Lookup: Recall the recorded pEC50 for CC(O)c1nc2nccc(/C(=N/O)Nc3ccc(F)c(Cl)c3)c2[nH]1 (centres unmarked) with IDO1 (Homo sapiens, UniProt P14902) and state it.
Found: 5.41

Lookup: Recall the recorded pEC50 for O/N=C(\Nc1ccc(F)c(Cl)c1)c1ccnc2nc(-c3ccc[nH]3)[nH]c12 with IDO1 (Homo sapiens, UniProt P14902) and state it.
Found: 5.65

Lookup: Recall the recorded pEC50 for CC(C)NCc1nc2nccc(/C(=N/O)Nc3ccc(F)c(Cl)c3)c2[nH]1 with IDO1 (Homo sapiens, UniProt P14902) and state it.
Found: 6.13

Lookup: Recall the recorded pEC50 for O/N=C(\Nc1ccc(F)c(Cl)c1)c1ccnc2nc(C(O)c3ccccc3)[nH]c12 (centres unmarked) with IDO1 (Homo sapiens, UniProt P14902) and state it.
Found: 5.01

Lookup: Recall the recorded pEC50 for O/N=C(\Nc1ccc(F)c(Cl)c1)c1ccnc2nc(CNCC3CC3)[nH]c12 with IDO1 (Homo sapiens, UniProt P14902) and state it.
Found: 6.12

Lookup: Recall the recorded pEC50 for O/N=C(\Nc1ccc(F)c(Cl)c1)c1ccnc2nc(Nc3ccccc3)[nH]c12 with IDO1 (Homo sapiens, UniProt P14902) and state it.
Found: 5.67

Lookup: Recall the recorded pEC50 for O/N=C(\Nc1ccc(F)c(Cl)c1)c1ccnc2nc(CN3CCCCC3)[nH]c12 with IDO1 (Homo sapiens, UniProt P14902) and state it.
Found: 5.79

Lookup: Recall the recorded pEC50 for O/N=C(\Nc1ccc(F)c(Cl)c1)c1ccc(Cl)c2nc[nH]c12 with IDO1 (Homo sapiens, UniProt P14902) and state it.
Found: 6.10

Lookup: Recall the recorded pEC50 for COCCN1CCC(Nc2nc3nccc(/C(=N/O)Nc4ccc(F)c(Cl)c4)c3[nH]2)C1 (centres unmarked) with IDO1 (Homo sapiens, UniProt P14902) and state it.
Found: 5.90

Lookup: Recall the recorded pEC50 for O/N=C(\Nc1ccc(F)c(Cl)c1)c1ccnc2nc(CNCc3ccccn3)[nH]c12 with IDO1 (Homo sapiens, UniProt P14902) and state it.
Found: 5.86
